# System: Streptococcus agalaactiae 1020
# Procedure text: MIC (minimum inhibitory concentration)
# Type: cell-based
# Condition summary: Streptococcus agalaactiae 1020; read-out: MIC
Property: MIC; scope: individual molecules
Record the value in µg/mL, omitting the unit from your answer.

// worked examples, MIC included
[
  {
    "Molecule": "CCC(=O)OC1CC(=O)OC(CC)C(COC2OC(C)CC(OC)C2OC)C=C(C)C=CC(=O)C(C)CC(C)C(OC2OC(C)C(O)C(N(C)C)C2O)C1C (centres unmarked) [Example 8]",
    "Readout units": "µg/mL",
    "Value observed": 0.4
  },
  {
    "Molecule": "CCC1OC(=O)CC(OC(=O)c2ccccc2)C(C)C(OC2OC(C)C(O)C(N(C)C)C2O)C(C)CC(C)C(=O)C=CC(C)=CC1COC1OC(C)CC(OC)C1OC (centres unmarked) [Example 9]",
    "Readout units": "µg/mL",
    "Value observed": 0.2
  },
  {
    "Molecule": "CCCC(=O)OC1CC(=O)OC(CC)C(COC2OC(C)CC(OC)C2OC)C=C(C)C=CC(=O)C(C)CC(CC=O)C(OC2OC(C)C(O)C(N(C)C)C2O)C1C (centres unmarked) [Example 3, 3-O-butyryl-4\"-deoxydesmycosin]",
    "Readout units": "µg/mL",
    "Value observed": 0.1
  },
  {
    "Molecule": "CCC1OC(=O)CC(OC(=O)c2ccccc2)C(C)C(OC2OC(C)C(O)C(N(C)C)C2O)C(CC=O)CC(C)C(=O)C=CC(C)=CC1COC1OC(C)CC(OC)C1OC (centres unmarked) [Example 5, 3-O-benzoyl-4\"-deoxydesmycosin]",
    "Readout units": "µg/mL",
    "Value observed": 0.2
  },
  {
    "Molecule": "CCC1OC(=O)CC(OC(C)=O)C(C)C(OC2OC(C)C(O)C(N(C)C)C2O)C(C)CC(C)C(=O)C=CC(C)=CC1COC1OC(C)CC(OC)C1OC (centres unmarked) [Example 7]",
    "Readout units": "µg/mL",
    "Value observed": 0.8
  }
]

The recorded MIC for CCC(=O)OC1CC(=O)OC(CC)C(COC2OC(C)CC(OC)C2OC)C=C(C)C=CC(=O)C(C)CC(CC=O)C(OC2OC(C)C(O)C(N(C)C)C2O)C1C (centres unmarked) [Example 2, 3-O-propionyl-4"-deoxydesmycosin] is 0.1

The recorded MIC for CCC1OC(=O)CC(OC(C)=O)C(C)C(OC2OC(C)C(O)C(N(C)C)C2O)C(CC=O)CC(C)C(=O)C=CC(C)=CC1COC1OC(C)CC(OC)C1OC (centres unmarked) [Example 1, 3-O-acetyl-4"-deoxydesmycosin] is 0.1

* * *

# Test system: Pseudomonas aeruginosa IAM 1095
# Procedure text: MIC (minimum inhibitory concentration)
# Format: cell-based
# Condition summary: Pseudomonas aeruginosa, IAM1095
Endpoint: MIC

// worked examples, MIC included
[
  {
    "Compound": "CC[C@H]1OC(=O)[C@H](C)[C@@H](O[C@H]2C[C@@](C)(OC)[C@@H](O)[C@H](C)O2)[C@H](C)[C@@H](O[C@@H]2O[C@H](C)C[C@H](N(C)C)[C@H]2O)[C@](C)(O)C[C@@H](C)C(=O)[C@H](C)[C@@H](O)[C@]1(C)O [Erythromycin, reference compound]",
    "MIC": "100 µg/mL"
  },
  {
    "Compound": "CCC1OC(=O)CC(OC(=O)Cc2ccccc2)C(C)C(OC2OC(C)C(O)C(N(C)C)C2O)C(C)CC(C)C(=O)C=CC(C)=CC1COC1OC(C)CC(OC)C1OC (stereo not shown) [Example 10]",
    "MIC": "> 100 µg/mL"
  },
  {
    "Compound": "CC[C@H]1OC(=O)C[C@@H](O)[C@H](C)[C@@H](O[C@@H]2O[C@H](C)[C@@H](O[C@H]3C[C@@](C)(O)[C@@H](O)[C@H](C)O3)[C@H](N(C)C)[C@H]2O)[C@@H](CC=O)C[C@@H](C)C(=O)/C=C/C(C)=C/[C@@H]1CO[C@@H]1O[C@H](C)[C@@H](O)[C@@H](OC)[C@H]1OC [Tylosin, reference compound]",
    "MIC": "> 100 µg/mL"
  }
]

The recorded MIC for CCC1OC(=O)CC(OC(=O)Cc2ccccc2)C(C)C(OC2OC(C)C(O)C(N(C)C)C2O)C(CC=O)CC(C)C(=O)C=CC(C)=CC1COC1OC(C)CC(OC)C1OC (stereo not shown) [Example 6, 3-O-phenylacetyl-4"-deoxydesmycosin] is > 100 µg/mL

* * *

Property: MIC; scope: individual molecules
# Test system: Klebsiella pneumoniae ATCC 10031
# Procedure text: MIC (minimum inhibitory concentration)
# Type: cell-based
# Condition summary: ATCC10031; Klebsiella pneumoniae ATCC 10031; read-out: MIC
Record the value in µg/mL, omitting the unit from your answer.

// worked examples, MIC included
[
  {
    "Molecule": "CCC1OC(=O)CC(OC(C)=O)C(C)C(OC2OC(C)C(O)C(N(C)C)C2O)C(C)CC(C)C(=O)C=CC(C)=CC1COC1OC(C)CC(OC)C1OC (stereo not drawn)",
    "Tested on": "Klebsiella pneumoniae ATCC 10031",
    "Readout units": "µg/mL",
    "Value observed": 25
  },
  {
    "Molecule": "CCC1OC(=O)CC(OC(=O)CC(C)C)C(C)C(OC2OC(C)C(O)C(N(C)C)C2O)C(CC=O)CC(C)C(=O)C=CC(C)=CC1COC1OC(C)CC(OC)C1OC (stereo not drawn)",
    "Tested on": "Klebsiella pneumoniae ATCC 10031",
    "Readout units": "µg/mL",
    "Value observed": 25
  }
]

The recorded MIC for CCC1OC(=O)CC(OC(C)=O)C(C)C(OC2OC(C)C(O)C(N(C)C)C2O)C(CC=O)CC(C)C(=O)C=CC(C)=CC1COC1OC(C)CC(OC)C1OC (stereo not drawn) is 25

* * *

Property: MIC; scope: individual compounds
# System: Klebsiella pneumoniae ATCC 10031
# Procedure text: MIC (minimum inhibitory concentration)
# Assay type: cell-based
# Condition summary: ATCC10031; Klebsiella pneumoniae ATCC 10031; read-out: MIC
Record the value in µg/mL, omitting the unit from your answer.

// worked examples, MIC included
[
  {
    "Compound": "CCC(=O)OC1CC(=O)OC(CC)C(COC2OC(C)CC(OC)C2OC)C=C(C)C=CC(=O)C(C)CC(C)C(OC2OC(C)C(O)C(N(C)C)C2O)C1C (centres unmarked) [Example 8]",
    "Endpoint": "MIC",
    "Readout units": "µg/mL",
    "Value observed": 12.5
  },
  {
    "Compound": "CCC(=O)OC1CC(=O)OC(CC)C(COC2OC(C)CC(OC)C2OC)C=C(C)C=CC(=O)C(C)CC(CC=O)C(OC2OC(C)C(O)C(N(C)C)C2O)C1C (centres unmarked) [Example 2, 3-O-propionyl-4\"-deoxydesmycosin]",
    "Endpoint": "MIC",
    "Readout units": "µg/mL",
    "Value observed": 25
  },
  {
    "Compound": "CCCC(=O)OC1CC(=O)OC(CC)C(COC2OC(C)CC(OC)C2OC)C=C(C)C=CC(=O)C(C)CC(CC=O)C(OC2OC(C)C(O)C(N(C)C)C2O)C1C (centres unmarked) [Example 3, 3-O-butyryl-4\"-deoxydesmycosin]",
    "Endpoint": "MIC",
    "Readout units": "µg/mL",
    "Value observed": 25
  },
  {
    "Compound": "CCC1OC(=O)CC(OC(=O)c2ccccc2)C(C)C(OC2OC(C)C(O)C(N(C)C)C2O)C(C)CC(C)C(=O)C=CC(C)=CC1COC1OC(C)CC(OC)C1OC (centres unmarked) [Example 9]",
    "Endpoint": "MIC",
    "Readout units": "µg/mL",
    "Value observed": 25
  }
]

The recorded MIC for CCC1OC(=O)CC(OC(=O)c2ccccc2)C(C)C(OC2OC(C)C(O)C(N(C)C)C2O)C(CC=O)CC(C)C(=O)C=CC(C)=CC1COC1OC(C)CC(OC)C1OC (centres unmarked) [Example 5, 3-O-benzoyl-4"-deoxydesmycosin] is 25

* * *

Property: MIC; scope: individual molecules
# Test system: Bacillus subtilis ATCC 6633
# Procedure text: MIC (minimum inhibitory concentration)
# Type: cell-based
# Condition summary: Bacillus subtilis, ATCC6633
Record the value in µg/mL, omitting the unit from your answer.

// worked examples, MIC included
[
  {
    "Molecule": "CC[C@H]1OC(=O)C[C@@H](O)[C@H](C)[C@@H](O[C@@H]2O[C@H](C)[C@@H](O[C@H]3C[C@@](C)(O)[C@@H](O)[C@H](C)O3)[C@H](N(C)C)[C@H]2O)[C@@H](CC=O)C[C@@H](C)C(=O)/C=C/C(C)=C/[C@@H]1CO[C@@H]1O[C@H](C)[C@@H](O)[C@@H](OC)[C@H]1OC [Tylosin, reference compound]",
    "Value observed": 0.2
  },
  {
    "Molecule": "CCC1OC(=O)CC(OC(=O)Cc2ccccc2)C(C)C(OC2OC(C)C(O)C(N(C)C)C2O)C(C)CC(C)C(=O)C=CC(C)=CC1COC1OC(C)CC(OC)C1OC (stereo not shown)",
    "Value observed": 0.2
  },
  {
    "Molecule": "CCC1OC(=O)CC(OC(=O)Cc2ccccc2)C(C)C(OC2OC(C)C(O)C(N(C)C)C2O)C(CC=O)CC(C)C(=O)C=CC(C)=CC1COC1OC(C)CC(OC)C1OC (stereo not shown)",
    "Value observed": 0.1
  }
]

Pending molecule:
Summary line: CC[C@H]1OC(=O)[C@H](C)[C@@H](O[C@H]2C[C@@](C)(OC)[C@@H](O)[C@H](C)O2)[C@H](C)[C@@H](O[C@@H]2O[C@H](C)C[C@H](N(C)C)[C@H]2O)[C@](C)(O)C[C@@H](C)C(=O)[C@H](C)[C@@H](O)[C@]1(C)O [Erythromycin, reference compound] , Bacillus subtilis ATCC 6633, reported MIC = 0.1
